Test system: T. cruzi-infected H9C2 cardiomyocytes, high-content imaging
protocolDetails: intracellular T. cruzi amastigote inhibition, imaging, H9C2 host cardiomyocytes, host toxicity (AID 1159565);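 note: infected cells incubated 72 h after plating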
details: measured here: amastigotes per cell
experimentalReadout: pIC50
Numbers only, as −log10 of the molar value.

# count of solved cases: 3
# compound, pIC50
measured = [
    ("CCN(CC)S(=O)(=O)c1ccc(OC)c(NC(=O)c2ccc([N+](=O)[O-])s2)c1", 6.89),
    ("Cc1cc2nc(CN(C)Cc3ncccc3C)[nH]c2cc1C", 6.30),
    ("COc1ccc(Nc2nc(-c3ccccn3)cs2)c(OC)c1", 5.30),
]

Parameters: items (list). Returns: pIC50 for each item.
1. O=C(CSc1ccc(F)cc1)N[C@@H](Cc1cnc[nH]1)C(=O)NCCc1ccccc1
2. Cc1cc(=O)n2nc(Oc3ccc(C#N)cc3Cl)sc2n1
3. Cc1[nH]nc2c1C(c1ccc(OCc3ccccc3F)cc1)SCC(=O)N2 (configuration not stated)
4. Cc1ccccc1OCC(=O)N1CCCN(c2cccnn2)CC1
5. Cc1ccc(CNC2CCN(C[C@@H]3Cn4c(=O)ccc5ccc(=O)n3c54)CC2)cc1F
6. O=C(NCc1nnc2n1CCCCC2)c1csc(-c2ccccc2)n1

Response:
1: 6.30; 2: 4.60; 3: 6.10; 4: 6.30; 5: 6.00; 6: 5.70

Parameters: items (list). Returns: pIC50 for each item.
1. N#Cc1cccc(CN2CCC(N(Cc3cccnc3)C(=O)c3cc(F)c(F)cc3F)CC2)c1
2. CCN(CC)c1nc(Nc2ccncc2)nc2ccccc12
3. CC(c1cc(Cl)cc(Cl)c1)N(C)c1ncc2c(N)nc(N)nc2n1 (configuration not stated)
4. COCCn1c(-c2ccccc2)cnc1NCc1ccccc1OC
5. Cc1nn(-c2nc(N)nc(-c3ccccn3)n2)c(N)c1-c1ccccc1
6. Cc1ccc(S(=O)(=O)Cn2nnnc2C(c2cccnc2)N2CCN(c3ccccc3)CC2)cc1 (configuration not stated)
7. COCCn1c(-c2ccc3c(c2)OCO3)cnc1NCc1ccccc1OC
8. Cn1nc([N+](=O)[O-])nc1N1CCCCC1

Response:
1: 6.49; 2: 8.30; 3: 9.00; 4: 5.20; 5: 5.89; 6: 6.49; 7: 5.10; 8: 6.00

---

Assignment: determine reported pIC50 for the given compounds.
Test system: T. cruzi-infected H9C2 cardiomyocytes, high-content imaging
protocolDetails: intracellular T. cruzi amastigote inhibition, imaging, H9C2 host cardiomyocytes, host toxicity (AID 1159565);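 note: infected cells incubated 72 h after plating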
details: measured here: H9C2 host cell toxicity
pIC50: −log10 of the molar value.

# count of solved cases: 8
# compound, experimentalReadout, reportedResult
data = [
    ("O=C(Nc1nccs1)c1ccccc1Cn1cc([N+](=O)[O-])cn1", "pIC50", "< 4.30"),
    ("O=C(Nc1nc(-c2ccccn2)cs1)C1CCc2ccccc2C1 (stereo not drawn)", "pIC50", 5.40),
    ("O=C(c1cnn(-c2ccccc2)n1)N1CCCC(n2ccnc2)C1 (stereo not drawn)", "pIC50", "< 4.30"),
    ("COc1ccc(C(=O)Nc2ccc(NC(=O)CO)cc2)cc1", "pIC50", "< 4.30"),
    ("Cn1nccc1NC(=O)Cn1ccc(-c2ccncc2)n1", "pIC50", "< 4.30"),
    ("O=C(CC1(O)C(=O)N(Cc2cccs2)c2ccc(Br)cc21)c1cccnc1 (stereo not drawn)", "pIC50", 5.40),
    ("Cc1ccccc1NS(=O)(=O)c1ccc2[nH]cc(C(=O)NC3CCCC(C)C3C)c(=O)c2c1 (stereo not drawn)", "pIC50", 5.20),
    ("CNC(=O)C1Cc2ccccc2N1C(=O)Cc1ccccc1 (stereo not drawn)", "pIC50", "< 4.30"),
]

Parameters: items (list). Returns: pIC50 for each item.
1. CCC(c1ccc(F)cc1)n1cncc1-c1cnn(C)c1 (stereo not drawn)
2. Cc1c([N+](=O)[O-])c(C(=O)Nc2sc3c(c2C#N)CCC(C)C3)nn1C (stereo not drawn)
3. O=C(c1cccc(Nc2ncc(-c3ccc4c(c3)OCO4)cn2)c1)N1CCOCC1

Response:
< 4.30
< 4.30
5.20

Parameters: items (list). Returns: pIC50 for each item.
1. O=C(Nc1n[nH]c(-c2ccccn2)n1)C1CC1c1ccccc1 (stereo not drawn)
2. Cc1cc(C#N)c([N+](=O)[O-])cc1Br
3. O=C(O)[C@H]1C[C@@H]1c1ccc(-c2ccc(CN(CCc3ccccn3)C(=O)C3CCC3)cc2)cc1
4. O=C(CN(Cc1ccccn1)Cc1ccccn1)NCc1ccc(-c2csnn2)cc1
5. O=C(NCCCn1cnc2ccccc21)c1ccc(NC(=O)c2ccco2)cc1
6. CCS(=O)(=O)c1cccc(C(=O)Nc2nc(-c3ccccn3)cs2)c1

Response:
1. < 4.30
2. 4.30
3. < 4.30
4. < 4.10
5. < 4.30
6. 5.40

Parameters: items (list). Returns: pIC50 for each item.
1. c1ccc2c(CCOc3nccnc3-c3ccncc3)c[nH]c2c1
2. Clc1ccc(CN2CCN(C3=NCCN3)CC2)cc1Cl
3. Cc1cc2nc(N3CC[C@H]3C(N)=O)nc(Nc3cc(C4CC4)[nH]n3)c2s1
4. CCc1ccccc1[C@@H](C)NC(=O)c1cnc2c(cnn2CC)c1NC1CCN(C(N)=O)CC1
5. COc1ccc([N+](=O)[O-])cc1NC(=O)Nc1cccc(Cl)c1

Response:
1. < 4.30
2. < 4.30
3. 6.30
4. < 4.30
5. < 4.30

Parameters: items (list). Returns: pIC50 for each item.
1. CCN(CC)S(=O)(=O)c1ccc(C)c(NC(=O)c2cc(Cl)c3c(c2)OCO3)c1
2. O=c1[nH]ccc2ccc(-c3ccncc3)cc12
3. O=C(Nc1ccccc1C(=O)Nc1ccccn1)c1ccco1
4. Cc1[nH]nc(-c2nc3ccccc3[nH]2)c1C(=O)NC1CCCNC1 (stereo not drawn)

Response:
[4.60, "< 4.30", "< 4.30", 5.49]

---

Tested on: T. cruzi-infected H9C2 cardiomyocytes, high-content imaging
protocolDetails: intracellular T. cruzi amastigote inhibition, imaging, H9C2 host cardiomyocytes, host toxicity (AID 1159565);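 note: infected cells incubated 72 h after plating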
details: measured here: H9C2 host cell toxicity
pIC50: −log10 of the molar value.
pIC50 of 5 or higher: Criterion met. Under 5: Criterion not met.

Below, 3 molecules whose answers are already recorded.
# molecule, group
data = [
    ("Cc1nc(-c2nc(NCc3ccc(Cl)cc3)c3cccnc3c2O)n[nH]1", "Criterion not met"),
    ("O=C(Nc1ccc(-c2nc3ccccc3c(=O)[nH]2)cc1)c1cccs1", "Criterion not met"),
    ("CS(=O)(=O)c1ccc(Nc2nccc(Nc3n[nH]c4ccc(F)cc34)n2)c(F)c1", "Criterion not met"),
]

Query: Could you please find out whether N#CN1CC[C@@H](NC(=O)Nc2ccccc2Oc2ccccc2)C1 has pIC50 that meets 5 or exceeds it?
Response: Criterion not met

Query: Could you please find out whether COc1cccc(-c2c(C)nn(-c3nc(N)nc(-c4ccccn4)n3)c2N)c1 has pIC50 that meets 5 or exceeds it?
Response: Criterion not met

Query: Could you please find out whether CNc1cc(Cn2c(C(=O)c3cc(C)cc(Cl)c3)c(C(C)C)c(=O)[nH]c2=O)ccn1 has pIC50 that meets 5 or exceeds it?
Response: Criterion not met

Query: Could you please find out whether O=C(c1ccc(O)c(Cl)c1)N1CCN(c2cnccn2)CC1 has pIC50 that meets 5 or exceeds it?
Response: Criterion not met

Query: Could you please find out whether CC(C)CC(=O)NC(c1cccs1)c1ccc2cccnc2c1O (stereo unspecified) has pIC50 that meets 5 or exceeds it?
Response: Criterion met

Query: Could you please find out whether CN(Cc1cc2ccccc2s1)c1ncc2c(N)nc(N)nc2n1 has pIC50 that meets 5 or exceeds it?
Response: Criterion not met

Query: Could you please find out whether CN(Cc1ccc(C(N)=O)cc1)C(c1ccc(F)cc1)c1cccnc1 (stereo unspecified) has pIC50 that meets 5 or exceeds it?
Response: Criterion not met

Query: Could you please find out whether COc1cccc(Nc2cc(C)nc(-c3ccccn3)n2)c1 has pIC50 that meets 5 or exceeds it?
Response: Criterion met

---

Test system: T. cruzi-infected H9C2 cardiomyocytes, high-content imaging
protocolDetails: intracellular T. cruzi amastigote inhibition, imaging, H9C2 host cardiomyocytes, host toxicity (AID 1159565);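 note: infected cells incubated 72 h after plating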
details: measured here: amastigotes per cell
experimentalReadout: pIC50
Answers are plain numbers, as −log10 of the molar value.

# compound, reportedResult
measured = [
    ("O=C(Nc1ccc(S(=O)(=O)N2CCCC2)cc1)c1ccc([N+](=O)[O-])s1", 6.70),
    ("O=[N+]([O-])c1ccc(C2=CC(c3ccccc3)=NCCN2)cc1", 6.60),
    ("COc1ccc(C2C3CCCCC3(O)CCN2CC(=O)Nc2ccc(Cl)cc2Cl)cc1 (stereo not given)", 6.10),
    ("COc1ccc(-c2ccc3nnc(-c4ccc(O)c(OC)c4)n3c2)cn1", 5.70),
    ("COc1ccc2ncc(=O)n(CCN3CCOC(CNCc4ccc(C(F)(F)F)cc4F)C3)c2n1 (stereo not given)", 6.20),
    ("O=C(Cc1ccc2c(c1)CCC2)Nc1n[nH]c(-c2ccccn2)n1", 5.00),
    ("NC(=O)c1cc(F)ccc1Nc1nc(NC2CCC(O)CC2)ncc1Cl (stereo not given)", 5.80),
    ("Cc1nc(-c2ccncc2)ncc1C(C)NC(=O)c1ccc(Cl)s1 (stereo not given)", 4.70),
]

Please turn your attention to the following entry.
Record O=C(O)[C@H]1C[C@@H]1c1ccc(-c2ccc(CN(CCc3ccccn3)C(=O)C3CCC3)cc2)cc1 / T. cruzi-infected H9C2 cardiomyocytes, high-content imaging, pIC50 recorded as 4.49
